- testSystem: human IL-13 wild type (human, UniProt P35225 35-146)
- Sequence (P35225 other isoform, or with tags, fused parts or gaps limits assumed): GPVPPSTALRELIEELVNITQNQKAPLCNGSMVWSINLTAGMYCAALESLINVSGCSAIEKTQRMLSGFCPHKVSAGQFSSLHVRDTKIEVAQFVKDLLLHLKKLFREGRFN
- assayNotes: cell-based or functional assay
Please provide measured Potency (IC50), A-549 bioassay for the entries that follow.

Consider the binder 13C5.1 (antibody, human IgG1, V domains shown, Humanized) VH: EVTLKESGPVLVKPTETLTLTCTFSGFSLSTSDMGVDWIRQPPGKALEWLAHIWWDDVKRYNPALKSRLTISKDTSKSQVVLTMTNMDPVDTATYYCARTVSSGYIYYAMDYWGQGTTVTVSS VL: DIQMTQSPSSLSASVGDRVTITCRASQDIRNYLNWYQRKPGKVVKLLIYYTSKLHSGVPSRFSGSGSGTDFTLTISSLQPEDVATYYCQQGNTLPLTFGGGTKVEIKR and give its measured Potency (IC50), A-549 bioassay.
0.868 nM

Consider the binder 5G1.2 (antibody, human IgG1, V domains shown, Humanized) VH: EVQLVQSGAEVKKPGASVKVSCKASGYTFTTYGVSWVRQAPGQGLEWIGEIYPGNYNTYYNEKFRGKATLTADKSTSTAYMELSSLRSDDTAVYFCSRWRTSYFSDYGYFDYWGQGTTVTVSS VL: DVVMTQSPLSLPVTLGQPASISCRSSQSLVHSHGNTYLHWYQQRPGQSPRLLIYTVSNRFSGVPDRFSGSGSGTDFTLKISRVEAEDVGVYFCSQSTHVPYTFGGGTKVEIKR and give its measured Potency (IC50), A-549 bioassay.
0.0295 nM

Consider the binder 13C5-Chim (antibody, human IgG1, V domains shown, also called chimeric 13C5) VH: QVTLKESGPGILQPSQTLSLTCSFSGFSLSTSDMGVDWIRQPSGKGLEWLAHIWWDDVKRYNPALKSRLTISKDTSSSQVFLMLASVDTADTATYYCARTVSSGYIYYAMDYWGQGTSVTVSS VL: DIQMTQTASSLSASLGDRVTISCRASQDIRNYLNWYQRKPDGTVKLLIFYTSKLHSGVPSRFSGSGSGTDYSLTIRNLEQEDIATYFCQQGNTLPLTFGGGTKLEIKR and give its measured Potency (IC50), A-549 bioassay.
0.107 nM
